Molecular target: T1, CD3 epsilon homodimer protein (UniProt P07766 23-126)
T1 construct: also called CD3 (CD3 epsilon)
T1 sequence (P07766 23-126): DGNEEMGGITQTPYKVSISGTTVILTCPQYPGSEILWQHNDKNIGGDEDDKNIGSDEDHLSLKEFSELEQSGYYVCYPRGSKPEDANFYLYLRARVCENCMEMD
Test: SPR Biacore T200, CD3e homodimer on chip, vs unaltered GLS3000 antibody
readout-name: ratio of amounts bound (Z=Y/X)
# respond with the number and nothing more

Illustrative cases are given below, each with its answer.
binder: GLS3000 S27eR (antibody, name in Kabat numbering, V domains shown, one-arm IgG as m2) VH: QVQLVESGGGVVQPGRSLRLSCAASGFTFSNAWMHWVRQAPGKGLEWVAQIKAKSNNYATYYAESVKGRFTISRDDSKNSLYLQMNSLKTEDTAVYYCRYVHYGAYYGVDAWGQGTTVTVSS VL: DIVMTQSPLSLPVTPGEPASISCRSSQSLVHRNRNTYLHWYQQKPGQAPRLLIYKVSNRFSGVPDRFSGSGSGTDFTLKISRVEAEDVGVYYCGQGTQVPYTFGQGTKLEIK
value-observed: 1.58
--
binder: GLS3000 G91A (antibody, name in Kabat numbering, V domains shown, one-arm IgG as m2) VH: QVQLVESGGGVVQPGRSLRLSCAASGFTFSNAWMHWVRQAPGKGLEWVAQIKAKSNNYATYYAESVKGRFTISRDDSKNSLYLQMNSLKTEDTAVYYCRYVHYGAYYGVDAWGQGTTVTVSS VL: DIVMTQSPLSLPVTPGEPASISCRSSQSLVHSNRNTYLHWYQQKPGQAPRLLIYKVSNRFSGVPDRFSGSGSGTDFTLKISRVEAEDVGVYYCGQATQVPYTFGQGTKLEIK
value-observed: 0.27
--
binder: GLS3000 S25I (antibody, name in Kabat numbering, V domains shown, one-arm IgG as m2) VH: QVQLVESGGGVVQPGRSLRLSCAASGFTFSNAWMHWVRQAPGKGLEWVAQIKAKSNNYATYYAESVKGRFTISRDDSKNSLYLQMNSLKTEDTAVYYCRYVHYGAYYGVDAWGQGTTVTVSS VL: DIVMTQSPLSLPVTPGEPASISCRISQSLVHSNRNTYLHWYQQKPGQAPRLLIYKVSNRFSGVPDRFSGSGSGTDFTLKISRVEAEDVGVYYCGQGTQVPYTFGQGTKLEIK
value-observed: 0.53
--
binder: GLS3000 S27aG (antibody, name in Kabat numbering, V domains shown, one-arm IgG as m2) VH: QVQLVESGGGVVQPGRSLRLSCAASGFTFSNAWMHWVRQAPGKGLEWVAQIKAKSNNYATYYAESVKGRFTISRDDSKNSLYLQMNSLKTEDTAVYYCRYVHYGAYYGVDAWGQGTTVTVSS VL: DIVMTQSPLSLPVTPGEPASISCRSSQGLVHSNRNTYLHWYQQKPGQAPRLLIYKVSNRFSGVPDRFSGSGSGTDFTLKISRVEAEDVGVYYCGQGTQVPYTFGQGTKLEIK
value-observed: 1.03

As a next step, examine the binder that follows.
# return recorded ratio of amounts bound (Z=Y/X) for entry GLS3000 H34K (antibody, name in Kabat numbering, V domains shown, one-arm IgG as m2) VH: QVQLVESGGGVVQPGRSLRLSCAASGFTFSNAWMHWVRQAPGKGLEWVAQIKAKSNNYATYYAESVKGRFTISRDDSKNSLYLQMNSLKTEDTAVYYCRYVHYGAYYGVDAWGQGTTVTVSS VL: DIVMTQSPLSLPVTPGEPASISCRSSQSLVHSNRNTYLKWYQQKPGQAPRLLIYKVSNRFSGVPDRFSGSGSGTDFTLKISRVEAEDVGVYYCGQGTQVPYTFGQGTKLEIK
2.17
